Please provide measured pKd for the entries that follow.
- ASSAYED SYSTEM: EGFRvIII (human, UniProt P00533)
- PROTOCOL SUMMARY: BLI
Keep in mind that pKd stands for -log10 of concentration in molar terms.

Prompt line: If you can, please state the reported pKd value of ABT-806 V3 (antibody, V domains shown) VH: QVQLQESGPGLVKPSQSLSLTCTVSGYSITSDFAWNWIRQPPGKGLEWIGYISYSGNTRYNPSLKSRVTISRDTSKNQFSLQLNSVTAEDTAVYYCVTAGRGFPYWGQGTLVTVSS VL: DIVMTQSPSSVSLSLGDRVTITCHSSQDINSNIGWLQQKPGKAFKGLIYHGTNLDDGVPSRFSGSGSGADYTLTISSLQAEDFATYYCVQYAQFPWTFGPGTKLEIKR .
Response line: 7.81

Prompt line: If you can, please state the reported pKd value of ABT-806 V6 (antibody, V domains shown) VH: QVQLQESGPGLVKPSQSLSLTCTVSGYSITSDFAWNWIRQAPGKGLEWVGYISYSGNTRYNPSLKSRFTISRDTSKNQFYLQLNSVTAEDTAVYYCVTAGRGFPYWGQGTLVTVSS VL: DIVMTQSPSSVSLSLGDRVTITCHSSQDINSNIGWLQQKPGKAFKGLIYHGTNLDDGVPSRFSGSGSGADYTLTISSLQAEDFATYYCVQYAQFPWTFGPGTKLEIKR .
Response line: 7.74

Prompt line: If you can, please state the reported pKd value of ABT-806 V2 (antibody, V domains shown) VH: QVQLQESGPGLVKPSQSLSLTCTVSGYSITSDFAWNWIRQPPGKGLEWIGYISYSGNTRYNPSLKSRVTISRDTSKNQFSLQLNSVTAEDTAVYYCVTAGRGFPYWGQGTLVTVSS VL: DIVMTQSPSSLSVSPGDRVTITCHSSQDINSNIGWLQQKPGKAPKGLIYHGTNLDDGVPSRFSGSGSGADYTLTISSLEPEDFAVYYCVQYAQFPWTFGQGTKVEIKR .
Response line: 7.58

Prompt line: If you can, please state the reported pKd value of ABT-806 V8 (antibody, V domains shown) VH: QVQLQESGPSLVKPSQTLSLTCTVSGYSITSDFAWNWIRQFPGRKLEWMGYISYSGNTRYNPSLKSRFTISRDTSKNQFYLKLRSVTIADTAVYYCVTAGRGFPYWGQGTLVTVSS VL: DIVMTQSPSSLSVSPGDRVTITCHSSQDINSNIGWLQQKPGKAPKGLIYHGTNLDDGVPSRFSGSGSGADYTLTISSLEPEDFAVYYCVQYAQFPWTFGQGTKVEIKR .
Response line: 7.50

Prompt line: If you can, please state the reported pKd value of ABT-806 V9 (antibody, V domains shown) VH: QVQLQESGPSLVKPSQTLSLTCTVSGYSITSDFAWNWIRQFPGRKLEWMGYISYSGNTRYNPSLKSRFTISRDTSKNQFYLKLRSVTIADTAVYYCVTAGRGFPYWGQGTLVTVSS VL: DIVMTQSPSSVSLSLGDRVTITCHSSQDINSNIGWLQQKPGKAFKGLIYHGTNLDDGVPSRFSGSGSGADYTLTISSLQAEDFATYYCVQYAQFPWTFGPGTKLEIKR .
Response line: 7.79

Prompt line: If you can, please state the reported pKd value of ABT-806 V1 (antibody, V domains shown) VH: QVQLQESGPGLVKPSQSLSLTCTVSGYSITSDFAWNWIRQPPGKGLEWIGYISYSGNTRYNPSLKSRVTISRDTSKNQFSLQLNSVTAEDTAVYYCVTAGRGFPYWGQGTLVTVSS VL: DIQMTQSPSSVSASVGDRVTITCHSSQDINSNIGWLQQKPGKAPKGLIYHGTNLDDGVPSRFSGSGSGADYTLTISSLQPEDFATYYCVQYAQFPWTFGQGTKVEIKR .
Response line: 7.53

Prompt line: If you can, please state the reported pKd value of ABT-806 V7 (antibody, V domains shown) VH: QVQLQESGPSLVKPSQTLSLTCTVSGYSITSDFAWNWIRQFPGRKLEWMGYISYSGNTRYNPSLKSRFTISRDTSKNQFYLKLRSVTIADTAVYYCVTAGRGFPYWGQGTLVTVSS VL: DIQMTQSPSSVSASVGDRVTITCHSSQDINSNIGWLQQKPGKAPKGLIYHGTNLDDGVPSRFSGSGSGADYTLTISSLQPEDFATYYCVQYAQFPWTFGQGTKVEIKR .
Response line: 7.42

Prompt line: If you can, please state the reported pKd value of ABT-806 V5 (antibody, V domains shown) VH: QVQLQESGPGLVKPSQSLSLTCTVSGYSITSDFAWNWIRQAPGKGLEWVGYISYSGNTRYNPSLKSRFTISRDTSKNQFYLQLNSVTAEDTAVYYCVTAGRGFPYWGQGTLVTVSS VL: DIVMTQSPSSLSVSPGDRVTITCHSSQDINSNIGWLQQKPGKAPKGLIYHGTNLDDGVPSRFSGSGSGADYTLTISSLEPEDFAVYYCVQYAQFPWTFGQGTKVEIKR .
Response line: 7.51

Prompt line: If you can, please state the reported pKd value of ABT-806 V4 (antibody, V domains shown) VH: QVQLQESGPGLVKPSQSLSLTCTVSGYSITSDFAWNWIRQAPGKGLEWVGYISYSGNTRYNPSLKSRFTISRDTSKNQFYLQLNSVTAEDTAVYYCVTAGRGFPYWGQGTLVTVSS VL: DIQMTQSPSSVSASVGDRVTITCHSSQDINSNIGWLQQKPGKAPKGLIYHGTNLDDGVPSRFSGSGSGADYTLTISSLQPEDFATYYCVQYAQFPWTFGQGTKVEIKR .
Response line: 7.63
